System: Staphylococcus aureus
MEASUREMENT DESCRIPTION: minimum inhibitory concentration, glucose bouillon medium dilution method
Format: cell-based
STUDY CONDITIONS: Method (2) glucose bouillon medium dilution, read-out: Minimum inhibitory amount (minimum inhibitory concentration, 100% control)
MEASURED PARAMETER: MIC (µg/mL)
Please respond with the number in µg/mL and leave the unit unwritten.

Some entries whose results are on file:
Q: Consider the molecule `O=C(NC=C(Cl)Cl)c1cc(Cl)ccc1O` and give its measured MIC.
Ans: 5

Q: Then what about the molecule `CCOC(=O)Oc1ccccc1C(=O)NC=C(Cl)Cl` ?
Ans: 2.5

Q: Then what about the molecule `O=C(NC=C(Cl)Cl)c1cc(Br)ccc1O` ?
Ans: 5

Q: Then what about the molecule `COC(=O)Oc1ccccc1C(=O)NC=C(Cl)Cl` ?
Ans: 10

Q: Then what about the molecule `CCC(=O)Oc1ccccc1C(=O)NC=C(Cl)Cl` ?
Ans: 5

---
Q: Consider the molecule `CC(C)C(=O)Oc1ccccc1C(=O)NC=C(Cl)Cl` and give its measured MIC.
Ans: 5

Q: Then what about the molecule `CCCC(=O)Oc1ccccc1C(=O)NC=C(Cl)Cl` ?
Ans: 10

Q: Then what about the molecule `O=C(NC=C(Cl)Cl)c1cccc([N+](=O)[O-])c1O` ?
Ans: 5

Q: Then what about the molecule `O=C(NC=C(Cl)Cl)c1cc(Cl)cc(Cl)c1O` ?
Ans: 5

Q: Then what about the molecule `CC(=O)Oc1ccccc1C(=O)NC=C(Cl)Cl` ?
Ans: 5

* * *

Test system: Aspergillus niger
MEASUREMENT DESCRIPTION: minimum inhibitory concentration, potato-dextrose agar dilution method
Type: cell-based
STUDY CONDITIONS: Method (1) potato-dextrose agar dilution, read-out: Minimum inhibitory amount (minimum inhibitory concentration, 100% control)
MEASURED PARAMETER: MIC (µg/mL)
Please respond with the number in µg/mL and leave the unit unwritten.

Q: Consider the compound `CC(=O)Oc1ccccc1C(=O)NC=C(Cl)Cl` and give its measured MIC.
Ans: 10

Q: Then what about the compound `CCC(=O)Oc1ccccc1C(=O)NC=C(Cl)Cl` ?
Ans: 10

Q: Then what about the compound `O=C(NC=C(Cl)Cl)c1cc(Cl)cc(Cl)c1O` ?
Ans: 10

Q: Then what about the compound `CC(C)COC(=O)Oc1ccccc1C(=O)NC=C(Cl)Cl` ?
Ans: 10

Q: Then what about the compound `O=C(NC=C(Cl)Cl)c1ccccc1OC(=O)C(Cl)Cl` ?
Ans: 10

Q: Then what about the compound `CC(=O)Oc1ccc(Cl)cc1C(=O)NC=C(Cl)Cl` ?
Ans: 2.5

Q: Then what about the compound `O=C(NC=C(Cl)Cl)c1cccc([N+](=O)[O-])c1O` ?
Ans: 10

Q: Then what about the compound `COC(=O)Oc1ccccc1C(=O)NC=C(Cl)Cl` ?
Ans: 10

Q: Then what about the compound `CCCC(=O)Oc1ccccc1C(=O)NC=C(Cl)Cl` ?
Ans: 10

Q: Then what about the compound `COc1ccccc1C(=O)NC=C(Cl)Cl` ?
Ans: 20

---
Q: Consider the compound `O=C(NC=C(Cl)Cl)c1cc(Cl)ccc1O` and give its measured MIC.
Ans: 10

Q: Then what about the compound `CCOC(=O)Oc1ccccc1C(=O)NC=C(Cl)Cl` ?
Ans: 10

Q: Then what about the compound `O=C(NC=C(Cl)Cl)c1cc(Br)ccc1O` ?
Ans: 20

Q: Then what about the compound `CC(C)C(=O)Oc1ccccc1C(=O)NC=C(Cl)Cl` ?
Ans: 10

Q: Then what about the compound `O=C(CCl)Oc1ccccc1C(=O)NC=C(Cl)Cl` ?
Ans: 10

Q: Then what about the compound `Cc1cccc(C(=O)NC=C(Cl)Cl)c1O` ?
Ans: 20

Q: Then what about the compound `CC(=O)Oc1c(Cl)cc(Cl)cc1C(=O)NC=C(Cl)Cl` ?
Ans: 10

The values you see were collected from patent US4055639A.
